assay.method.text: Aqueous solubility test according to United States Pharmacopeia 32
Format: physicochemical
experimental.setup: pH 6.27, aqueous buffer, thermodynamic from solid, aqueous, pH 6.27; by qualitative observation; read-out: Solubility (mg/ml of solvent)
measurement.type: solubility (mg/mL)
One number for each entry, in mg/mL.

QUERY: I have this compound here, CC(C)CN(C[C@@H](OP(=O)([O-])[O-])[C@H](Cc1ccccc1)NC(=O)O[C@H]1CCOC1)S(=O)(=O)c1ccc(N)cc1.[Ca+2] , and I need its recorded solubility.
RESULT: 0.1
